# Target system: NaV1.5 (Homo sapiens, UniProt Q14524)
# Sequence (Q14524 whole entry): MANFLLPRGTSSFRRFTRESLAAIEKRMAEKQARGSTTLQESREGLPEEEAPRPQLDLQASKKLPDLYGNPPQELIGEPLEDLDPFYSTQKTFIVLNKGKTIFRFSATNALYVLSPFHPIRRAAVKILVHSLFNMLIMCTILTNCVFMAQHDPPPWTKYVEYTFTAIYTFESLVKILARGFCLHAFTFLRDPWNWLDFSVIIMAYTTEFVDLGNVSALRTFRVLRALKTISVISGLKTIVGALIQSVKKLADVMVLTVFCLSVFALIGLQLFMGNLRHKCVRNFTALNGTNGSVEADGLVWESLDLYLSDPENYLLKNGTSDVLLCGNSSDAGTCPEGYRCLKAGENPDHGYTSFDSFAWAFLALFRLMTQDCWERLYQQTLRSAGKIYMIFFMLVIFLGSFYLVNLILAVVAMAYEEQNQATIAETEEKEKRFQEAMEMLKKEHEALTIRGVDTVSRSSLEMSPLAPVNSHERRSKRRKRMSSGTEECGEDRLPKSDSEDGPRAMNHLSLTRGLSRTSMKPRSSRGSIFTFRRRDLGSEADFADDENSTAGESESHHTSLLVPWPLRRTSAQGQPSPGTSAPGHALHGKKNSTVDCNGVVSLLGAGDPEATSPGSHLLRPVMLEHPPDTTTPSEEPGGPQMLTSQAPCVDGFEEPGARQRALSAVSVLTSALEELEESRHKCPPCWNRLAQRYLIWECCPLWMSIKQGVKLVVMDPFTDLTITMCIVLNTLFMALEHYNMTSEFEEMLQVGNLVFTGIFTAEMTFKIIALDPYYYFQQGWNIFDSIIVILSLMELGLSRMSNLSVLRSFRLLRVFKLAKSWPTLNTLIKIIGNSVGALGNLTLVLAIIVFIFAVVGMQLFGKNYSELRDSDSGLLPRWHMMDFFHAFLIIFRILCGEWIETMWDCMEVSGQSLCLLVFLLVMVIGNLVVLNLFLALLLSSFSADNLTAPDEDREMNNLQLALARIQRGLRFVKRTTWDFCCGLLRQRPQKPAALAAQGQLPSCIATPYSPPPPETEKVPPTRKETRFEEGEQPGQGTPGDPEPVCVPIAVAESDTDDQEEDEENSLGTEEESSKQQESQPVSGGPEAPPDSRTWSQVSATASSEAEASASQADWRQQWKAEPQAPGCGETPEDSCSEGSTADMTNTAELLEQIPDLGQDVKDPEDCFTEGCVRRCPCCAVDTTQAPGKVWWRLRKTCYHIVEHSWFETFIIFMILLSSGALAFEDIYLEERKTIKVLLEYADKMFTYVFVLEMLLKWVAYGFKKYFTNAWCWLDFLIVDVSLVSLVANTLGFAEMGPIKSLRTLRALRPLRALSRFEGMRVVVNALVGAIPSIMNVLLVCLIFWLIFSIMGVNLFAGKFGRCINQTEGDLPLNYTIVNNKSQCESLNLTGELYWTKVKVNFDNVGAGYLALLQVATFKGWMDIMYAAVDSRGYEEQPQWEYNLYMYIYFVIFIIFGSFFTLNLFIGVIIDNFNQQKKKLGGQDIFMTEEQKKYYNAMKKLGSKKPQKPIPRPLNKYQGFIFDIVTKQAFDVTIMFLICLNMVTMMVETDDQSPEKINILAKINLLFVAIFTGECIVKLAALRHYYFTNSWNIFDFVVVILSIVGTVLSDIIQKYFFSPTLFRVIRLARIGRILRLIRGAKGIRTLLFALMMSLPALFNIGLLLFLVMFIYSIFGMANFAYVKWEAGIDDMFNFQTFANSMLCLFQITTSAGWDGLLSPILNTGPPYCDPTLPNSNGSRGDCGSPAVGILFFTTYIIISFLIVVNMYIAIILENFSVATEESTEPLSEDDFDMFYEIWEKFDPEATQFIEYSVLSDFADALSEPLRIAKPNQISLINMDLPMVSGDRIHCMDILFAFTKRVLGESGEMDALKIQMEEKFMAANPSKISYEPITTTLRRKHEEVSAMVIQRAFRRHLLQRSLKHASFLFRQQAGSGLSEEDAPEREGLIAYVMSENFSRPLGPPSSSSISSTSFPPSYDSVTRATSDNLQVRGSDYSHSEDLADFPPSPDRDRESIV
# Measurement protocol: In vitro NaV1.5 cardiotoxicity
# Protocol conditions: NaV1.5, rest state; top test concentration 30 uM; read-out: perc_inhibition_rest_state
Test readout: inhibition at 30 µM (%)
Field format: number, assumed %, no unit text.

-- ask Need inhibition at 30 µM, item CC(C)C(Nc1ncnc2[nH]c(C(=O)NC3CCN(C)C3)cc12)c1ccc2c(c1)S(=O)(=O)CCC2 (stereo not shown) [ASAP-0011198]
-- reply 11

====

# Measurement protocol: Permeability Papp (AB) MDR1/MDCKII
# Protocol conditions: In vitro MDR1-MDCKII permeability, recovery B to A, no inhibitor
Reported perc_recovery_b_to_a_mean values for a set of molecules
Please provide the amount together with its unit, number first.

Worked cases, perc_recovery_b_to_a_mean given:
1) Cc1nn(C)cc1-c1cc2c(NC(c3ccc4c(c3)S(=O)(=O)CCC4)C(C)C)ncnc2[nH]1 (stereo not shown) [ASAP-0011446]: 63.5%
2) CC(C)[C@H](Nc1ncnc2[nH]c(-c3cnn(C)c3C#N)cc12)c1ccc2c(n1)NC(=O)CO2 (single isomer, unassigned) [ASAP-0011177]: 79.8%
3) CC(C)[C@H](Nc1ncnc2[nH]c(-c3cnn(CC(N)=O)c3)cc12)c1ccc2c(c1)S(=O)(=O)CCC2 (single isomer, unassigned) [ASAP-0011428]: 72.9%

Let us move to another entry and its perc_recovery_b_to_a_mean.
-- ask Need perc_recovery_b_to_a_mean, item CC(C)[C@H](Nc1ncnc2[nH]c(-c3cnn(C)c3C#N)cc12)c1ccc2c(n1)OCCO2 [ASAP-0010715]
-- reply 76.7%
